Biological target: Schistosoma mansoni thioredoxin glutathione reductase (TGR)
Assay: qHTS Assay for the Inhibitors of Schistosoma Mansoni Peroxiredoxins; note: nearly all actives have a fitted effect of over 60% in size; note: potency is the fitted concentration of half-maximal effect
Details: purified TGR, DTNB reduction, TNB absorbance 405 nm; series mostly up to 114 µM
From the text: Schistosomiasis is a major neglected tropical disease that currently affects over 200 million. It is caused by different species of flatworms, such as Schistosoma mansoni. […] In addition, the fluorescence assay was also subject to fluorescence interference from compound library members. […] The assay followed the reduction of 5, 5'-dithiobis (2-nitrobenzoic acid) (DTNB) (Ellman's reagent) by NADPH and measured the increase in absorbance at 412 nm of the reaction product, TNB. […]
Out of some 360,000 compounds screened, about 11,000 (3.1%) were called active. Inconclusive results (about 4%) are left out. This is one part of a sample in which actives are shown more often than they occur.
Measured Property: Potency

Worked cases, Potency given:
{"columns": ["Molecule", "Potency"],
 "data": [
  ["C=Cc1ccc(Cn2c(C(=O)OC)cc3sc(C)cc32)cc1", "inactive"],
  ["CC1=C/C(=N\\OS(=O)(=O)c2ccccc2)C=CC1=O", "2.24 µM (active)"],
  ["CCCCN(C(=O)c1ccc(C)o1)c1c(N)n(CCCC)c(=O)[nH]c1=O", "inactive"],
  ["Cc1ccc(C(=O)Cn2cccn2)cc1", "inactive"]
]}

What Potency appears in the records for this molecule with Schistosoma mansoni thioredoxin glutathione reductase (TGR)? CCN(CC)c1nn2c(=O)c(C(=O)NCCc3ccccc3)cnc2s1 inactive

Proceed to Cc1cc(C)c2oc(C(=O)Nc3c(C(=O)Nc4ccccc4)oc4ccccc34)cc(=O)c2c1 inactive
